- measurement-notes: self-splicing fitness, log relative to wild type (ln ratio); higher = more splicing; Tetrahymena group I intron in knt gene, E. coli kanamycin selection, DiMSum; sequences stand for … in CUCUCU…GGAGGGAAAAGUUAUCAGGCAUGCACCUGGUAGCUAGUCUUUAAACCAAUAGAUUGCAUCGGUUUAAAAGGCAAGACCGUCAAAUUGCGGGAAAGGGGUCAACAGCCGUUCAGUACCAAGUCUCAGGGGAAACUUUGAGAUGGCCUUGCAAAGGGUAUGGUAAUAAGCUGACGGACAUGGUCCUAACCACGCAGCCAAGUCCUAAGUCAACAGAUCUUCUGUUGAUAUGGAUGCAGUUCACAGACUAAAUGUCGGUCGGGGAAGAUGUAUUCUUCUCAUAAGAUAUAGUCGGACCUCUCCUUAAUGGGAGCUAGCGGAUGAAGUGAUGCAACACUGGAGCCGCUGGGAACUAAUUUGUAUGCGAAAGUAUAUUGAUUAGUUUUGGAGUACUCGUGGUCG;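 further: selection with 25 µg/mL kanamycin versus none on LB agar overnight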
- test-settings: 30 °C
Kindly supply the reported self-splicing fitness (ln) values for the records listed here.
# respond with the number and nothing more

Query block: For the sequence CUGGAGCAAUAUUACGCGUC , report self-splicing fitness (ln).
Result block: -3.41

Query block: For the sequence AGUCAGCAAUAUUACGCAUA , report self-splicing fitness (ln).
Result block: -2.09

Query block: For the sequence AUCGAGCAAUAUUACGUGCC , report self-splicing fitness (ln).
Result block: -2.52

Query block: For the sequence UUUUAGCAAUAUUACGUCGU , report self-splicing fitness (ln).
Result block: -3.49

Query block: For the sequence GUGAAGCAAUAUUACGAACA , report self-splicing fitness (ln).
Result block: -0.242

Query block: For the sequence CUGGAGCAAUAUUACGCUUU , report self-splicing fitness (ln).
Result block: -3.02

Query block: For the sequence GCCAAGCAAUAUUACGAUUC , report self-splicing fitness (ln).
Result block: -0.96

Query block: For the sequence GUCAAGCAAUAUUACGUACG , report self-splicing fitness (ln).
Result block: -2.46

Query block: For the sequence ACAGAGCAAUAUUACGGAUA , report self-splicing fitness (ln).
Result block: -3.19

Query block: For the sequence UCGAAGCAAUAUUACGUCUA , report self-splicing fitness (ln).
Result block: 0.0685

Query block: For the sequence UACUAGCAAUAUUACGUUUC , report self-splicing fitness (ln).
Result block: -4.15

Query block: For the sequence CGAUAGCAAUAUUACGGCCG , report self-splicing fitness (ln).
Result block: -0.641

Query block: For the sequence ACAAAGCAAUAUUACGGCGG , report self-splicing fitness (ln).
Result block: -0.226

Query block: For the sequence CCAAAGCAAUAUUACGGUCG , report self-splicing fitness (ln).
Result block: -0.306

Query block: For the sequence AACGAGCAAUAUUACGGAUU , report self-splicing fitness (ln).
Result block: -2.3

---

- measurement-notes: self-splicing fitness, log relative to wild type (ln ratio); higher = more splicing; Tetrahymena group I intron in knt gene, E. coli kanamycin selection, DiMSum; sequences stand for … in CUCUCU…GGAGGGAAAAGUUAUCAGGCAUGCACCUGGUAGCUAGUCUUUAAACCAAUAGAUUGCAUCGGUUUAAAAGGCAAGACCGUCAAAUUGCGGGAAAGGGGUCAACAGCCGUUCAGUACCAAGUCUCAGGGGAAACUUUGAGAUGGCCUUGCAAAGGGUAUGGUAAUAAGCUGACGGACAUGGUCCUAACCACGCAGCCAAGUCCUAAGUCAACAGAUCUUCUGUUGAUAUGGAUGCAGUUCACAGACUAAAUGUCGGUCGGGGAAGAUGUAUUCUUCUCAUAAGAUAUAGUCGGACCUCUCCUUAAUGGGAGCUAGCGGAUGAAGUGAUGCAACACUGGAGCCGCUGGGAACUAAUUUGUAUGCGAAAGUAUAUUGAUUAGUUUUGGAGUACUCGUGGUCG
- test-settings: 30 °C
readout: self-splicing fitness (ln)
# respond with the number and nothing more

Query block: For the sequence CCUUAGCAAUAUUACGCUCA , report self-splicing fitness (ln).
Result block: -3

Query block: For the sequence AAGGAGCAAUAUUACGGGUA , report self-splicing fitness (ln).
Result block: -2.64

Query block: For the sequence AGGAAGCAAUAUUACGUGCA , report self-splicing fitness (ln).
Result block: -1.12

Query block: For the sequence GAGUAGCAAUAUUACGGAUA , report self-splicing fitness (ln).
Result block: -2.11

Query block: For the sequence UGAUAGCAAUAUUACGUACG , report self-splicing fitness (ln).
Result block: -0.418

Query block: For the sequence CACUAGCAAUAUUACGGUGA , report self-splicing fitness (ln).
Result block: -3.47

Query block: For the sequence UACCAGCAAUAUUACGUAUC , report self-splicing fitness (ln).
Result block: -2.55

Query block: For the sequence AUGGAGCAAUAUUACGAAUC , report self-splicing fitness (ln).
Result block: -3.53

Query block: For the sequence GCGAAGCAAUAUUACGGGAA , report self-splicing fitness (ln).
Result block: -3.48

Query block: For the sequence CACAAGCAAUAUUACGGGCG , report self-splicing fitness (ln).
Result block: -0.358

Query block: For the sequence AUGCAGCAAUAUUACGAGGG , report self-splicing fitness (ln).
Result block: -2.51

Query block: For the sequence UGCCAGCAAUAUUACGCUCC , report self-splicing fitness (ln).
Result block: -2.88

Query block: For the sequence CUACAGCAAUAUUACGCUAA , report self-splicing fitness (ln).
Result block: -2.93

Query block: For the sequence CUCCAGCAAUAUUACGUUGA , report self-splicing fitness (ln).
Result block: -2.56

Query block: For the sequence AGACAGCAAUAUUACGAGGG , report self-splicing fitness (ln).
Result block: -4.15

Query block: For the sequence CUUUAGCAAUAUUACGCACG , report self-splicing fitness (ln).
Result block: -1.41

Query block: For the sequence AAAGAGCAAUAUUACGAUGU , report self-splicing fitness (ln).
Result block: -2.08

Query block: For the sequence AUAGAGCAAUAUUACGCGAU , report self-splicing fitness (ln).
Result block: -2.28

Query block: For the sequence ACCCAGCAAUAUUACGCCAU , report self-splicing fitness (ln).
Result block: -4.24

Query block: For the sequence GUUAAGCAAUAUUACGAAAU , report self-splicing fitness (ln).
Result block: -1.41

Query block: For the sequence CAUAAGCAAUAUUACGAAGA , report self-splicing fitness (ln).
Result block: -2.84

Query block: For the sequence GUCCAGCAAUAUUACGGUUA , report self-splicing fitness (ln).
Result block: -0.0348

Query block: For the sequence GGCCAGCAAUAUUACGCUGU , report self-splicing fitness (ln).
Result block: -1.74

Query block: For the sequence CGUAAGCAAUAUUACGGUUA , report self-splicing fitness (ln).
Result block: -2.29

Query block: For the sequence AAAAAGCAAUAUUACGCCCG , report self-splicing fitness (ln).
Result block: -0.481

Query block: For the sequence ACGAAGCAAUAUUACGUAGA , report self-splicing fitness (ln).
Result block: -3.72

Query block: For the sequence GUGGAGCAAUAUUACGUCUC , report self-splicing fitness (ln).
Result block: -3.56

Query block: For the sequence UGAAAGCAAUAUUACGUAUA , report self-splicing fitness (ln).
Result block: -1.56

Query block: For the sequence CAUCAGCAAUAUUACGGCAU , report self-splicing fitness (ln).
Result block: -2.85

Query block: For the sequence AUUAAGCAAUAUUACGAGGA , report self-splicing fitness (ln).
Result block: -3.01

Query block: For the sequence CCAAAGCAAUAUUACGUUAG , report self-splicing fitness (ln).
Result block: -1.89

Query block: For the sequence UUAAAGCAAUAUUACGGAAC , report self-splicing fitness (ln).
Result block: -1.08

Query block: For the sequence GUGUAGCAAUAUUACGUUCA , report self-splicing fitness (ln).
Result block: -0.405

Query block: For the sequence AUUUAGCAAUAUUACGACGA , report self-splicing fitness (ln).
Result block: -0.672

Query block: For the sequence CGAAAGCAAUAUUACGCCCU , report self-splicing fitness (ln).
Result block: -0.989

Query block: For the sequence GUUUAGCAAUAUUACGGAAU , report self-splicing fitness (ln).
Result block: -2.56

Query block: For the sequence ACCGAGCAAUAUUACGGGAG , report self-splicing fitness (ln).
Result block: -3.54

Query block: For the sequence AAAAAGCAAUAUUACGGAAC , report self-splicing fitness (ln).
Result block: -2.97

Query block: For the sequence GACAAGCAAUAUUACGGAGA , report self-splicing fitness (ln).
Result block: -2.59

Query block: For the sequence CAAAAGCAAUAUUACGGGGA , report self-splicing fitness (ln).
Result block: -3.26

Query block: For the sequence GCGAAGCAAUAUUACGCGAC , report self-splicing fitness (ln).
Result block: -1.88

Query block: For the sequence AGUAAGCAAUAUUACGUUUC , report self-splicing fitness (ln).
Result block: -3.78

Query block: For the sequence CGGGAGCAAUAUUACGCACU , report self-splicing fitness (ln).
Result block: -2.4

Query block: For the sequence UUGUAGCAAUAUUACGGCUU , report self-splicing fitness (ln).
Result block: -1.41

Query block: For the sequence CGCGAGCAAUAUUACGUACG , report self-splicing fitness (ln).
Result block: -2.6

Query block: For the sequence GACCAGCAAUAUUACGGCGA , report self-splicing fitness (ln).
Result block: -0.195

Query block: For the sequence AAGAAGCAAUAUUACGCAGG , report self-splicing fitness (ln).
Result block: -2.54

Query block: For the sequence AUACAGCAAUAUUACGAGCU , report self-splicing fitness (ln).
Result block: -1.51

Query block: For the sequence CCGGAGCAAUAUUACGUAGA , report self-splicing fitness (ln).
Result block: -3.6

Query block: For the sequence CAUUAGCAAUAUUACGGAUA , report self-splicing fitness (ln).
Result block: -2.16

Query block: For the sequence GGUUAGCAAUAUUACGCGCG , report self-splicing fitness (ln).
Result block: -0.271

Query block: For the sequence CCGGAGCAAUAUUACGACGC , report self-splicing fitness (ln).
Result block: -3.23

Query block: For the sequence CUCAAGCAAUAUUACGGGAG , report self-splicing fitness (ln).
Result block: -2.91

Query block: For the sequence UGGUAGCAAUAUUACGGGGU , report self-splicing fitness (ln).
Result block: -3.24

Query block: For the sequence GUGUAGCAAUAUUACGUACA , report self-splicing fitness (ln).
Result block: -1.49

Query block: For the sequence ACACAGCAAUAUUACGUGAU , report self-splicing fitness (ln).
Result block: -2.14

Query block: For the sequence GUUAAGCAAUAUUACGUUGU , report self-splicing fitness (ln).
Result block: -3.68

Query block: For the sequence CGAAAGCAAUAUUACGAUUA , report self-splicing fitness (ln).
Result block: -1.48

Query block: For the sequence UUUUAGCAAUAUUACGCUAG , report self-splicing fitness (ln).
Result block: -3.18
